The compounds listed here are annotated with their logD.
Test protocol: Lipophilicity, log D of the compound at pH 7.4 by UV/Vis spectroscopy based shake-flask method
Format: physicochemical
Study conditions: buffer
Just the number, please, no unit after it.

[[record]]
smiles_code = "O=C1CCCc2cccnc21"
observed_value = 0.2

[[record]]
smiles_code = "CCNC(=O)c1nc(OC)cc(N(C)C)n1"
observed_value = 1

[[record]]
smiles_code = "CCNC(=O)c1cc(OC)nc(N(C)C)n1"
observed_value = 2.6

[[record]]
smiles_code = "CCNC(=O)c1cc(N(C)C)nc(OC)n1"
observed_value = 1.6


Entry under review: "O=C1CCCc2ncccc21" . Reported logD? 0.9

Entry under review: "O=C1CCCc2ccncc21" . Reported logD? 0.8

Entry under review: "O=C1CCCc2cnccc21" . Reported logD? 1

====

Test protocol: Dissociation constant, pKa of the compound
Format: physicochemical
The molecules listed here are annotated with their pKa.
Just the number, please, no unit after it.

// known answers, use as guide
[[record]]
smiles_code = "CCNC(=O)c1cc(OC)nc(N(C)C)n1"
quantity_kind = "pKa"
observed_value = 2.4

[[record]]
smiles_code = "CCNC(=O)c1cc(N(C)C)nc(OC)n1"
quantity_kind = "pKa"
observed_value = 3.8


Entry under review: "CCNC(=O)c1nc(OC)cc(N(C)C)n1" . Reported pKa? 2.9

====

Test protocol: Partition coefficient of buffer-octanol system, logP of the compound by shake-flask method
Type: physicochemical
Quantity kind: logP
Just the number, please, no unit after it.

Entry under review: "CCNC(=O)c1nc(OC)cc(N(C)C)n1" . Reported logP? 1.1

====

The compounds listed here are annotated with their logP.
Test protocol: Partition coefficient of buffer-octanol system, logP of the compound by shake-flask method
Assay type: physicochemical
Just the number, please, no unit after it.

[[record]]
smiles_code = "O=C1CCCc2ncccc21"
observed_value = 1.2

[[record]]
smiles_code = "O=C1CCCc2cccnc21"
observed_value = 0.4

[[record]]
smiles_code = "O=C1CCCc2cnccc21"
observed_value = 1.5

[[record]]
smiles_code = "CCNC(=O)c1cc(N(C)C)nc(OC)n1"
observed_value = 1.7


Entry under review: "CCNC(=O)c1cc(OC)nc(N(C)C)n1" . Reported logP? 2.5

Entry under review: "O=C1CCCc2ccncc21" . Reported logP? 0.9

src = ChEMBL document CHEMBL3585318
